Listed binders paired with reported KD chimeric/KD mutated
- measured_on: T1, AMHR-II/Fc fusion protein (human, UniProt Q16671 18-149, limits assumed)
- T1 construct: also called AMHR-II recombinant receptor expressed in the form of fusion protein with a region Fc; recombinant target; not shown: Fc region
- test_summary: SPR, BIAcore X100; ratio against the chimeric 12G4
I'd appreciate a reply containing only the number, no unit.

binder	KD chimeric/KD mutated
mutated humanized 12G4 antibody 6B-78 produced in CHO (antibody, human IgG1, kappa, V domains shown, also called 6B_78 CHO) VH: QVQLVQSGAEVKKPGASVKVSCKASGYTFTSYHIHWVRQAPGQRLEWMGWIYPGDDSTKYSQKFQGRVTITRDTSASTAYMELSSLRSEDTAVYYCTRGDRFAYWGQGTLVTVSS VL: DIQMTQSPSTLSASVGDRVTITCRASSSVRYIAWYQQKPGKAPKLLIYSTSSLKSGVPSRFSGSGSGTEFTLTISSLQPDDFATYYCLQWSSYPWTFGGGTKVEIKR	2.6
mutated humanized 12G4 antibody 3C-23K produced in CHO (antibody, human IgG1, kappa, V domains shown, also called 3C_23K CHO; 3C-23K-CHO) VH: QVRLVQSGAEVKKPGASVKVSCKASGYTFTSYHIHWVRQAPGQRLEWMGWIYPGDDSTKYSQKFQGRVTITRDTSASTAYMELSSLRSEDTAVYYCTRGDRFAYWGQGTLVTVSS VL: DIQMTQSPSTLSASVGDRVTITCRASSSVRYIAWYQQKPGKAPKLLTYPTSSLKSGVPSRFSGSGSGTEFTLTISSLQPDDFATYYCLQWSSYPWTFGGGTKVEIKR	8.5

API: the following record is the query input.
Can you look up the measured KD chimeric/KD mutated of mutated humanized 12G4 antibody 6B-78 produced in YB2/0 (antibody, human IgG1, kappa, V domains shown, Chains without leader; Mutation VL-E184K; also called 6B_78 YB2/0; R901 6B78) VH: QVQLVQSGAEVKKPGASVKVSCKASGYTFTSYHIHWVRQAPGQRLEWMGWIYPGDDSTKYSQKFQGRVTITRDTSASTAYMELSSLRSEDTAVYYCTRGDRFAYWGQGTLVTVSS VL: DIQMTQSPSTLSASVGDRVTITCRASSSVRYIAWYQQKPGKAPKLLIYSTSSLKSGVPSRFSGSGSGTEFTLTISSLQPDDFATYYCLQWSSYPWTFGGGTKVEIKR for me?
2.6
